- Test Target: T1, Cynomolgus CD3εδ Fc heterodimer (Cy CD3ε Fc / CD3δ Fc-HIS) (cynomolgus, UniProt Q95LI8 22-100)
- T1 chain 1: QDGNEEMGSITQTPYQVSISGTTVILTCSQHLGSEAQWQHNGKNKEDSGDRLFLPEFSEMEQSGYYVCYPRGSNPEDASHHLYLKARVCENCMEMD
- T1 chain 2: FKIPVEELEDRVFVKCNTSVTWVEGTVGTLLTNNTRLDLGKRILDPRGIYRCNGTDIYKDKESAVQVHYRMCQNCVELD
- Assay Protocol: BLI (Octet), IgG on AHC sensor, pH 6.0
Result Type: koff (s⁻¹)
A number alone suffices; assume s⁻¹.

Examples with answers:
Binder | Unit Info | Value
SAD10320_P04_D11 (ADI-57387) (antibody, V domains shown, IgG; also called Ab110) VH: QVQLVQSGAEVKKPGASVKVSCKASGFNIKDYYMHWVRQAPGQRLQWMGWIDLENANTIYDAKFQGRVTITRDTSASTAYMELSSLRSEDTAVYYCARDAYGHVFYDVWGQGTLVTVSS VL: DIVMTQSPDSLAVSLGERATINCKSSQSLLNARTGKNYLAWYQQKPGQPPKLLIYWASTRESGVPDRFSGSGSGTDFTLTISSLQAEDVAVYYCKQSYHHRTFGGGTKVEIK | s⁻¹ | 0.00338
SAD10320_P02_H06 (ADI-57372) (antibody, V domains shown, IgG; also called Ab89) VH: QVQLVQSGAEVKKPGASVKVSCKASGFNIKDYYMHWVRQAPGQRLEWMGWIDLENANTIYDAKFQGRVTITRDTSASTAYMELSSLRSEDTAVYYCARDAYGRNHYDVWGQGTLVTVSS VL: DIVMTQSPDSLAVSLGERATINCKSSQSLLNARTGKSYLAWYQQKPGQPPKLLIYWASTRESGVPDRFSGSGSGTDFTLTISSLQAEDVAVYYCKQSYVHRTFGGGTKVEIK | s⁻¹ | 0.00281

Now let's try a different one.
Prompt line: I have this binder here, SAD10320_P03_D08 (ADI-57377) (antibody, V domains shown, IgG; also called Ab95) VH: QVQLVQSGAEVKKPGASVKVSCKASGFNIKDYYMHWVRQAPGQRLEWMGWIDLENANTIYDAKFQGRVTITRDTSASTAYMELSSLRSEDTAVYYCARDAYGHQFYDVWGQGTLVTVSS VL: DIVMTQSPDSLAVSLGERATINCKSSQSLLNARTGKNYLAWYQQKPGQPPKLLIYWASTRESGVPDRFSGSGSGTDFTLTISSLQAEDVAVYYCKQSYHTRTFGGGTKVEIK , and I need its recorded koff.
Response line: 0.00194
